- System: K562 (human leukemia cells)
- Experiment: MTT cancer cell growth inhibition
- Type: cell-based
- Test Settings: Homo sapiens, K562, 72 h, MTT, 72 hours incubation, K562 cells; read-out: GI50 K562
# GI50 values compiled below

Molecule	GI50 (nM)
C/C=C1\NC(=O)c2nc(ccc2F)CNC(=O)C[C@@H](/C=C/CCSC(C)=O)OC(=O)[C@H](C(C)C)NC1=O [Compound 93]	37
C/C=C1\NC(=O)c2cc(F)cc(n2)CNC(=O)C[C@@H](/C=C/CCS)OC(=O)[C@H](CCCCNC(=O)OCC2c3ccccc3-c3ccccc32)NC1=O [Compound 121]	38
C/C=C1\NC(=O)c2nc(ccc2F)CNC(=O)C[C@@H](/C=C/CCS)OC(=O)[C@H](C)NC1=O [Compound 112]	55

* * *

- Tested on: Huh-7 (human hepatoma cells)
- Experiment: MTT cancer cell growth inhibition
- Type: cell-based
- Test Settings: Homo sapiens, Huh-7, 72 h, MTT, 72 hours incubation, Huh-7 cells; read-out: GI50 Huh-7
Cut-off 50 nM on GI50: below means T, at or above means F.

Compound Smiles	Measured On	Assigned Class
C/C=C1\NC(=O)c2cc(SC)cc(n2)CNC(=O)C[C@@H](/C=C/CCSC(C)=O)OC(=O)[C@H](CCCCNC(=O)OCC2c3ccccc3-c3ccccc32)NC1=O	Huh-7 (human hepatoma cells)	T
C/C=C1\NC(=O)c2ccc(SC)c(n2)CNC(=O)C[C@@H](/C=C/CCSC(C)=O)OC(=O)[C@H](CC)NC1=O	Huh-7 (human hepatoma cells)	T
C/C=C1\NC(=O)c2cc(SC)cc(n2)CNC(=O)C[C@@H](/C=C/CCSC(=O)CCCCCCC)OC(=O)[C@H](CC)NC1=O	Huh-7 (human hepatoma cells)	T
C/C=C1\NC(=O)c2ccc(SC)c(n2)CNC(=O)C[C@@H](/C=C/CCS)OC(=O)[C@H](C(C)C)NC1=O	Huh-7 (human hepatoma cells)	T
C/C=C1\NC(=O)c2nc(ccc2SCC)CNC(=O)C[C@@H](/C=C/CCSC(=O)CCCCCC)OC(=O)[C@H](C(C)C)NC1=O	Huh-7 (human hepatoma cells)	T
C/C=C1\NC(=O)c2ncc(F)c(n2)CNC(=O)C[C@@H](/C=C/CCSC(C)=O)OC(=O)[C@H](C)NC1=O	Huh-7 (human hepatoma cells)	T
C/C=C1\NC(=O)c2nccc(n2)CNC(=O)C[C@@H](/C=C/CCS)OC(=O)[C@H](C(C)C)NC1=O	Huh-7 (human hepatoma cells)	F
C/C=C1\NC(=O)c2cccc(n2)CNC(=O)C[C@@H](/C=C/CCSC(=O)CCCCC)OC(=O)[C@H](C(C)C)NC1=O	Huh-7 (human hepatoma cells)	T
C/C=C1\NC(=O)c2nccc(n2)CNC(=O)C[C@@H](/C=C/CCS)OC(=O)[C@H](C)NC1=O	Huh-7 (human hepatoma cells)	T
C/C=C1\NC(=O)c2cccc(n2)CNC(=O)C[C@@H](/C=C/CCSC(=O)CCCCCC)OC(=O)[C@H](C(C)C)NC1=O	Huh-7 (human hepatoma cells)	F
C/C=C1\NC(=O)c2cc(F)cc(n2)CNC(=O)C[C@@H](/C=C/CCS)OC(=O)[C@H](CCCCNC(=O)OCC2c3ccccc3-c3ccccc32)NC1=O	Huh-7 (human hepatoma cells)	T
C/C=C1\NC(=O)c2ccc(SCC)c(n2)CNC(=O)C[C@@H](/C=C/CCSC(=O)CCCCC)OC(=O)[C@H](C(C)C)NC1=O	Huh-7 (human hepatoma cells)	T
C/C=C1\NC(=O)c2nc(ccc2F)CNC(=O)C[C@@H](/C=C/CCS)OC(=O)[C@H](Cc2cccc3ccccc23)NC1=O	Huh-7 (human hepatoma cells)	T
C/C=C1\NC(=O)c2cccc(n2)CNC(=O)C[C@@H](/C=C/CCSC=O)OC(=O)[C@H](C(C)C)NC1=O	Huh-7 (human hepatoma cells)	F
C/C=C1\NC(=O)c2nc(ccc2F)CNC(=O)C[C@@H](/C=C/CCSC(=O)CCCCCCC)OC(=O)[C@H](CC)NC1=O	Huh-7 (human hepatoma cells)	T
C/C=C1\NC(=O)c2nc(ccc2F)CCNC(=O)C[C@@H](/C=C/CCSC(C)=O)OC(=O)[C@H](C(C)C)NC1=O	Huh-7 (human hepatoma cells)	T
C/C=C1\NC(=O)c2ccc(SC)c(n2)CNC(=O)C[C@@H](/C=C/CCSC(=O)CCCCCCC)OC(=O)[C@H](C)NC1=O	Huh-7 (human hepatoma cells)	T
C/C=C1\NC(=O)c2nc(ccc2C)CNC(=O)C[C@@H](/C=C/CCSC(C)=O)OC(=O)[C@H](Cc2ccccc2)NC1=O	Huh-7 (human hepatoma cells)	T
C/C=C1\NC(=O)c2ccc(F)c(n2)CNC(=O)C[C@@H](/C=C/CCSC(=O)CCCCCCC)OC(=O)[C@H](Cc2ccccc2)NC1=O	Huh-7 (human hepatoma cells)	T
C=C1NC(=O)c2cc(SC)cc(n2)CNC(=O)C[C@@H](/C=C/CCSC(C)=O)OC(=O)[C@H](C(C)C)NC1=O	Huh-7 (human hepatoma cells)	T
C/C=C1\NC(=O)c2ccc(SC)c(n2)CNC(=O)C[C@@H](/C=C/CCSC(C)=O)OC(=O)[C@H](C)NC1=O	Huh-7 (human hepatoma cells)	F
C/C=C1\NC(=O)c2ccc(F)c(n2)CNC(=O)C[C@@H](/C=C/CCS)OC(=O)[C@H](CCCCNC(=O)OCC2c3ccccc3-c3ccccc32)NC1=O	Huh-7 (human hepatoma cells)	F
C/C=C1\NC(=O)c2cccc(n2)CNC(=O)C[C@@H](/C=C/CCS)OC(=O)[C@H](CCCCNC(=O)OCC2c3ccccc3-c3ccccc32)NC1=O	Huh-7 (human hepatoma cells)	T
C/C=C1\NC(=O)c2cc(SC)cc(n2)CNC(=O)C[C@@H](/C=C/CCSC=O)OC(=O)[C@H](C(C)C)NC1=O	Huh-7 (human hepatoma cells)	F
